EXPERIMENTAL_TARGET: Very long chain fatty acid elongase 2 (Homo sapiens, UniProt Q9NXB9)
Sequence (Q9NXB9 whole entry): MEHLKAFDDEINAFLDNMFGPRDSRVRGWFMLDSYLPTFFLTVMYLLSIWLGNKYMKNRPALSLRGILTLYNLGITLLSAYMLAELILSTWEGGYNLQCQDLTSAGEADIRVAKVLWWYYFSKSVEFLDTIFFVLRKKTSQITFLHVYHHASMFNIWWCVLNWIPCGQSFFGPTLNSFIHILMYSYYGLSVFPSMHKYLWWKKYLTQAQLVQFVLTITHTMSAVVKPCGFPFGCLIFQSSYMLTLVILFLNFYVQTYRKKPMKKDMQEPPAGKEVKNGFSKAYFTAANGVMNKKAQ
ASSAY_DETAILS: Inhibition of human ELOVL2 expressed in african green monkey COS7 cells
Assay type: cell-based, COS-7
MEASURE: IC50

query: State recorded IC50 with Very long chain fatty acid elongase 2 (Homo sapiens, UniProt Q9NXB9), entry Cc1[nH]n(-c2ccc(OC(F)(F)F)cc2)c(=O)c1C1(C(F)(F)F)C(=O)N(c2ccccc2)C2=C1C(=O)CC(C)(C)C2 (stereo unspecified) , no comment.
result: > 10 µM

* * *

ASSAY_DETAILS: Plasma concentration in mouse at 10 mg/kg, po after 2 hrs
Assay type: ADME, organism-based
Parameters: dose 10 mg/kg, route oral
MEASURE: concentration at 2 h (µM)
# number only, unit µM dropped from output

query: For Cc1[nH]n(-c2ccc(OC(F)(F)F)cc2)c(=O)c1C1(C(F)(F)F)C(=O)N(c2ccccc2)C2=C1C(=O)CC(C)(C)C2 (stereo unspecified) , write its concentration at 2 h.
result: 30

* * *

EXPERIMENTAL_TARGET: Very long chain fatty acid elongase 1 (Homo sapiens, UniProt Q9BW60)
Sequence (Q9BW60 whole entry): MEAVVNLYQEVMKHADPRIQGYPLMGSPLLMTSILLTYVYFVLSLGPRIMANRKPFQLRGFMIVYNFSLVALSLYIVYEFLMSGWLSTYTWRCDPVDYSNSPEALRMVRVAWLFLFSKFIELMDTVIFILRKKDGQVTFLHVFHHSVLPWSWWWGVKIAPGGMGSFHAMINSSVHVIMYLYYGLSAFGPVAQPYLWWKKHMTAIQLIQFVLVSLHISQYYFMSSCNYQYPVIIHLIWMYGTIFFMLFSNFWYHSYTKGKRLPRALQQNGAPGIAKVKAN
ASSAY_DETAILS: Inhibition of human ELOVL1 expressed in african green monkey COS7 cells
MEASURE: IC50

query: Would you please give the reported IC50 of Cc1[nH]n(-c2ccc(OC(F)(F)F)cc2)c(=O)c1C1(C(F)(F)F)C(=O)N(c2ccccc2)C2=C1C(=O)CC(C)(C)C2 (stereo unspecified) with Very long chain fatty acid elongase 1 (Homo sapiens, UniProt Q9BW60)?
result: > 10 µM

* * *

ASSAY_DETAILS: Plasma concentration in mouse at 1 mg/kg, po after 8 hrs
Assay type: ADME, organism-based
Design: dose 1 mg/kg, route oral
MEASURE: concentration at 8 h (nM)
Express your answer in nM, writing the number without its unit.

query: Quote concentration at 8 h reported for Cc1[nH]n(-c2ccc(OC(F)(F)F)cc2)c(=O)c1C1(C(F)(F)F)C(=O)N(c2ccccc2)C2=C1C(=O)CC(C)(C)C2 (stereo unspecified) please.
result: 1400

* * *

EXPERIMENTAL_TARGET: Very long chain fatty acid elongase 6 (Homo sapiens, UniProt Q9H5J4)
Sequence (Q9H5J4 whole entry): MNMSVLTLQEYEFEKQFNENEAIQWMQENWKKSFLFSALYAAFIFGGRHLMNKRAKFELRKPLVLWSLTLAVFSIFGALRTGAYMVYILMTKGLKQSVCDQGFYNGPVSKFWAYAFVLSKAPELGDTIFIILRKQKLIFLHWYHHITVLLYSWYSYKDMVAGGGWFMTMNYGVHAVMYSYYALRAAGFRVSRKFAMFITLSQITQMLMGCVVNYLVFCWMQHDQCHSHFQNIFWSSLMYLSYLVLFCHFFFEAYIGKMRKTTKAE
ASSAY_DETAILS: Inhibition of human ELOVL6 expressed in african green monkey COS7 cells assessed as palmitoyl-CoA elongation
MEASURE: IC50

query: Give IC50 for Cc1[nH]n(C2CCCCC2)c(=O)c1C1(C(F)(F)F)C(=O)N(c2ccccc2)C2=C1C(=O)CC(C)(C)C2 (stereo not drawn) tested on Very long chain fatty acid elongase 6 (Homo sapiens, UniProt Q9H5J4).
result: > 10 µM

query: Return reported IC50 for target or system Very long chain fatty acid elongase 6 (Homo sapiens, UniProt Q9H5J4), item Cc1[nH]n(C(C)C)c(=O)c1C1(C(F)(F)F)C(=O)N(c2ccccc2)C2=C1C(=O)CC(C)(C)C2 (stereo not drawn) .
result: > 10 µM

query: Quote Very long chain fatty acid elongase 6 (Homo sapiens, UniProt Q9H5J4) IC50 for entry CC(C)c1[nH]n(-c2ccccc2)c(=O)c1C1(C(F)(F)F)C(=O)N(c2ccccc2)C2=C1C(=O)CC(C)(C)C2 (stereo not drawn) .
result: > 10 µM
